Details: microsomes
Human Liver Microsome Stability values by entry
Enter your answer as a number in µL/min/mg; do not include the unit.

Sample answers from the record:
Req: Looking for the measured Human Liver Microsome Stability of Cc1cc(S(=O)(=O)N(C)CC(=O)NCc2cn(-c3ccccc3)nn2)c2[nH]ncc2c1 , can you help?
Resp: 520

Req: Looking for the measured Human Liver Microsome Stability of Cc1cc(S(=O)(=O)N(C)CC(=O)Nc2ccc(C3CC3)c(Cl)c2)c2[nH]c(C#N)cc2c1 , can you help?
Resp: 203

Req: Looking for the measured Human Liver Microsome Stability of Cc1cc(S(=O)(=O)N(C)CC(=O)Nc2ccc3c(c2)OCCN3C)c2[nH]nc(C)c2c1 , can you help?
Resp: 19

Req: Looking for the measured Human Liver Microsome Stability of CC#CCNC(=O)CN(C)S(=O)(=O)c1cc(C)cc2cn[nH]c12 , can you help?
Resp: 19

Req: Looking for the measured Human Liver Microsome Stability of Cc1cc(S(=O)(=O)N(C)CC(=O)Nc2ccc3c(c2)OCCN3C(C)(C)CO)c2[nH]ncc2c1 , can you help?
Resp: 56

Req: Looking for the measured Human Liver Microsome Stability of CN(CC(=O)Nc1ccn(C)c(=O)c1)S(=O)(=O)c1cc(Cl)cc2cc(C#N)[nH]c12 , can you help?
Resp: 11

Further cases:
Req: Looking for the measured Human Liver Microsome Stability of CCN(CC(=O)Nc1ccc2c(c1)OCCN2C)S(=O)(=O)c1cc(C)cc2cn[nH]c12 , can you help?
Resp: 46

Req: Looking for the measured Human Liver Microsome Stability of CN(CC(=O)Nc1ccn(C)c(=O)c1)S(=O)(=O)c1cc(C(F)F)cc2c(F)n[nH]c12 , can you help?
Resp: -15

Req: Looking for the measured Human Liver Microsome Stability of Cc1cc(S(=O)(=O)N2CCC[C@@H](C(=O)Nc3ccc4c(c3)OCCN4C3COC3)C2)c2[nH]ncc2c1 , can you help?
Resp: 34
